Just for reference, the CheMixHub drug solubility set is where these values come from.

Test: xn = mol fraction of the nth substance listed, in the solute-free solvent
Conditions: 288.15 K; x2 = 0.1139
Assign solubility (g/100 g solution) to each entry below.
Give bare numbers.

compound	solubility (g/100 g solution)
COC(=O)C1=C(C)NC(C)=C(C(=O)OCC(C)C)C1c1ccccc1[N+](=O)[O-] (centres undefined) + CCCO + O	1.49
CC(=O)Nc1ccc(OC(=O)c2ccccc2OC(C)=O)cc1 + CC(C)O + O	0.0289
CS(=O)(=O)c1ccc(C(O)C(CF)NC(=O)C(Cl)Cl)cc1 (centres undefined) + CC(C)O + O	0.286

Provide measured solubility (g/100 g solution) value, entry: O=[N+]([O-])c1cc[nH]n1 + CCCO + O
0.769

* * *

Assay: xn = mol fraction of the nth substance listed, in the solute-free solvent
Details: 288.15 K; x2 = 0.7297
assay metric: solubility (g/100 g solution)
One number for each entry.

molecule	solubility (g/100 g solution)
O=[N+]([O-])c1cc[nH]n1 + CCCO + O	3.11
CS(=O)(=O)c1ccc(C(O)C(CF)NC(=O)C(Cl)Cl)cc1 (centres undefined) + CC(C)O + O	0.537
CC(=O)Nc1ccc(OC(=O)c2ccccc2OC(C)=O)cc1 + CC(C)O + O	0.131

Shifting focus to the molecule that follows.
Provide measured solubility (g/100 g solution) value, entry: COC(=O)C1=C(C)NC(C)=C(C(=O)OCC(C)C)C1c1ccccc1[N+](=O)[O-] (centres undefined) + CCCO + O
3.69

* * *

Assay: xn = mol fraction of the nth substance listed, in the solute-free solvent
Conditions: 318.15 K; x2 = 0.9
Assign solubility (g/100 g solution) to each entry below.
Numbers only.

molecule	solubility (g/100 g solution)
CC1(C)SC2C(NC(=O)C(NC(=O)N3CCNC3=O)c3ccccc3)C(=O)N2C1C(=O)O (stereo not given) + CO + CC(C)O	1.37

Value sought for every listed molecule: solubility (g/100 g solution).
1. O=c1[nH]cc(F)c(=O)[nH]1 + CO + C1CCOC1
2. CN1CCN(C(=O)OC2c3nccnc3C(=O)N2c2ccc(Cl)cn2)CC1 (stereo not given) + C1CCOC1 + O
3. CCCCN1CCCCC1C(=O)Nc1c(C)cccc1C.Cl.O (stereo not given) + CO + O
4. CN1CCN(C(=O)OC2c3nccnc3C(=O)N2c2ccc(Cl)cn2)CC1 (stereo not given) + CC#N + O

1.65
8.07
21.6
6.08

* * *

Assign solubility (g/100 g solution) to each entry below.
Test: xn = mol fraction of the nth substance listed, in the solute-free solvent
Conditions: 283.15 K; x2 = 0.4117
One number for each entry.

Below, 3 molecules whose answers are already recorded.
molecule	measured
O=[N+]([O-])c1cc[nH]n1 + CCCO + O	2.08
CC(=O)Nc1ccc(OC(=O)c2ccccc2OC(C)=O)cc1 + CC(C)O + O	0.0787
COC(=O)C1=C(C)NC(C)=C(C(=O)OCC(C)C)C1c1ccccc1[N+](=O)[O-] (centres undefined) + CCCO + O	2.82

Provide measured solubility (g/100 g solution) value, entry: CS(=O)(=O)c1ccc(C(O)C(CF)NC(=O)C(Cl)Cl)cc1 (centres undefined) + CC(C)O + O
0.398

* * *

Assay: xn = mol fraction of the nth substance listed, in the solute-free solvent
Details: 323.15 K; x2 = 0.9
Assign solubility (g/100 g solution) to each entry below.

Below, 5 compounds whose answers are already recorded.
compound	solubility (g/100 g solution)
O=c1[nH]cc(F)c(=O)[nH]1 + CO + C1CCOC1	1.85
CC1(C)SC2C(NC(=O)C(NC(=O)N3CCNC3=O)c3ccccc3)C(=O)N2C1C(=O)O (stereo unspecified) + CO + CC(C)O	1.68
CCCCN1CCCCC1C(=O)Nc1c(C)cccc1C.Cl.O (stereo unspecified) + CO + O	25.4
CC1(C)SC2C(NC(=O)C(NC(=O)N3CCNC3=O)c3ccccc3)C(=O)N2C1C(=O)O (stereo unspecified) + CCO + CC(C)O	2.92
CCCCN1CCCCC1C(=O)Nc1c(C)cccc1C.Cl.O (stereo unspecified) + CCO + O	15.5

Provide measured solubility (g/100 g solution) value, entry: CCOC(=O)C1=CC2(CC)CCCN3CCc4c(n1c1ccccc41)C32 (stereo unspecified) + CCO + O
2.39

* * *

Assay: xn = mol fraction of the nth substance listed, in the solute-free solvent
Conditions: 313.15 K; x2 = 0.9
assay metric: solubility (g/100 g solution)
Numbers only.

compound	assay metric	measured
CCCCN1CCCCC1C(=O)Nc1c(C)cccc1C.Cl.O (configuration not stated) + CCO + O	solubility (g/100 g solution)	9.51

Value sought for every listed compound: solubility (g/100 g solution).
1. CC1(C)SC2C(NC(=O)C(NC(=O)N3CCNC3=O)c3ccccc3)C(=O)N2C1C(=O)O (configuration not stated) + CO + CC(C)O
2. CC1(C)SC2C(NC(=O)C(NC(=O)N3CCNC3=O)c3ccccc3)C(=O)N2C1C(=O)O (configuration not stated) + CCO + CC(C)O
3. O=c1ccc2ccccc2o1 + CO + O
4. O=c1[nH]cc(F)c(=O)[nH]1 + CO + C1CCOC1
5. CCOC(=O)C1=CC2(CC)CCCN3CCc4c(n1c1ccccc41)C32 (configuration not stated) + CCO + O
6. CCCCN1CCCCC1C(=O)Nc1c(C)cccc1C.Cl.O (configuration not stated) + CO + O

[1.14, 2.01, 65.3, 1.43, 1.5, 18.9]

* * *

Assay: xn = mol fraction of the nth substance listed, in the solute-free solvent
Conditions: 278.15 K; x2 = 0.3103
Assign solubility (g/100 g solution) to each entry below.

Below, 3 molecules whose answers are already recorded.
molecule	assay metric	measured
COC(=O)C1=C(C)NC(C)=C(C(=O)OCC(C)C)C1c1ccccc1[N+](=O)[O-] (centres undefined) + CC(C)O + O	solubility (g/100 g solution)	2.4
CC(=O)Nc1ccc(OC(=O)c2ccccc2OC(C)=O)cc1 + CC(C)O + O	solubility (g/100 g solution)	0.0475
CS(=O)(=O)c1ccc(C(O)C(CF)NC(=O)C(Cl)Cl)cc1 (centres undefined) + CC(C)O + O	solubility (g/100 g solution)	0.276

Shifting focus to the molecule that follows.
Provide measured solubility (g/100 g solution) value, entry: COC(=O)C1=C(C)NC(C)=C(C(=O)OCC(C)C)C1c1ccccc1[N+](=O)[O-] (centres undefined) + CCCO + O
2.02

* * *

Experiment: xn = mol fraction of the nth substance listed, in the solute-free solvent
Conditions: 298.15 K; x2 = 0.7297
assay metric: solubility (g/100 g solution)

Below, 3 compounds whose answers are already recorded.
compound	solubility (g/100 g solution)
O=[N+]([O-])c1cc[nH]n1 + CCCO + O	4
CC(=O)Nc1ccc(OC(=O)c2ccccc2OC(C)=O)cc1 + CC(C)O + O	0.239
CS(=O)(=O)c1ccc(C(O)C(CF)NC(=O)C(Cl)Cl)cc1 (centres undefined) + CC(C)O + O	0.911

Shifting focus to the compound that follows.
Provide measured solubility (g/100 g solution) value, entry: COC(=O)C1=C(C)NC(C)=C(C(=O)OCC(C)C)C1c1ccccc1[N+](=O)[O-] (centres undefined) + CCCO + O
5.22

* * *

Experiment: xn = mol fraction of the nth substance listed, in the solute-free solvent
Settings: 293.15 K; x2 = 0.08908
assay metric: solubility (g/100 g solution)
Answers are plain numbers.

Below, 3 compounds whose answers are already recorded.
compound	solubility (g/100 g solution)
CS(=O)(=O)c1ccc(C(O)C(CF)NC(=O)C(Cl)Cl)cc1 (centres undefined) + CCO + O	0.507
O=[N+]([O-])c1cc[nH]n1 + CCO + O	0.478
COC(=O)C1=C(C)NC(C)=C(C(=O)OCC(C)C)C1c1ccccc1[N+](=O)[O-] (centres undefined) + CCO + O	0.817

Provide measured solubility (g/100 g solution) value, entry: CC(=O)Nc1ccc(OC(=O)c2ccccc2OC(C)=O)cc1 + CCO + O
0.0242

* * *

Experiment: xn = mol fraction of the nth substance listed, in the solute-free solvent
Details: 328.15 K; x2 = 0.9
Hi, to clarify the labels: 1.0 covers solubility (g/100 g solution) from 10 upward, 0.0 covers anything below 10.

Given the entry CN1CCN(C(=O)OC2c3nccnc3C(=O)N2c2ccc(Cl)cn2)CC1 (stereo unspecified) + CCO + O , answer whether its solubility (g/100 g solution) meets or surpasses 10.
0.0

Given the entry CCCCN1CCCCC1C(=O)Nc1c(C)cccc1C.Cl.O (stereo unspecified) + CO + O , answer whether its solubility (g/100 g solution) meets or surpasses 10.
1.0

Given the entry CN1CCN(C(=O)OC2c3nccnc3C(=O)N2c2ccc(Cl)cn2)CC1 (stereo unspecified) + CC#N + O , answer whether its solubility (g/100 g solution) meets or surpasses 10.
0.0

Given the entry CN1CCN(C(=O)OC2c3nccnc3C(=O)N2c2ccc(Cl)cn2)CC1 (stereo unspecified) + CC(C)=O + O , answer whether its solubility (g/100 g solution) meets or surpasses 10.
0.0

Given the entry CCCCN1CCCCC1C(=O)Nc1c(C)cccc1C.Cl.O (stereo unspecified) + CCO + O , answer whether its solubility (g/100 g solution) meets or surpasses 10.
1.0
